- Measurement notes: Wear life (T 1/2) of polymer plate in xenon fade meter, JIS L0843 and JIS B7754
- Assay type: physicochemical
- Particulars: time until color density decreases to one-half the initial value
// returns -1 unless T1/2 is strictly below 100 h, in which case 1

Past entries and their recorded results:
{"Compound": "CC(=O)N1C(=O)C2=C(C3CC3)c3c(sc4c3CCCC4)C3(C4CCC3CC4)C2C1=O (stereo not drawn)", "Group": -1}
{"Compound": "CC1=C2C(=O)N(CC#N)C(=O)C2C2(c3oc(-c4ccccc4)cc31)C1CC3CC(C1)CC2C3 (stereo not drawn) [B, reference compound]", "Group": 1}
{"Compound": "COc1cc(OC)c2c(c1)C(C)=C1C(=O)N(C#N)C(=O)C1C21C2CC3CC(C2)CC1C3 (stereo not drawn)", "Group": -1}
{"Compound": "N#CN1C(=O)C2=C(c3ccoc3)c3ccoc3C3(C4CCC3CC4)C2C1=O (stereo not drawn)", "Group": -1}
{"Compound": "CC(C)C1=C2C(=O)N(S(C)(=O)=O)C(=O)C2C2(c3c1ccn3C)C1CC3CC2CC(Cl)(C3)C1 (stereo not drawn)", "Group": -1}
{"Compound": "N#CN1C(=O)C2=C(C3CC3)c3ccsc3C3(C4CC5CC(C4)CC3C5)C2C1=O (stereo not drawn)", "Group": -1}
{"Compound": "CC12CCCC(CCC1)C21c2sc([N+](=O)[O-])cc2C(C2CC2)=C2C(=O)N(C(=O)c3c(F)c(F)c(F)c(F)c3F)C(=O)C21 (stereo not drawn)", "Group": -1}
{"Compound": "CCN1C(=O)C2=C(C)c3cc(-c4ccc(OC)cc4)n(C)c3C3(C4CC5CC(C4)CC3C5)C2C1=O (stereo not drawn) [G, reference compound]", "Group": 1}
{"Compound": "CC1=C2C(=O)N(CC#N)C(=O)C2C2(c3sc(-c4ccccc4)cc31)C1CC3CC(C1)CC2C3 (stereo not drawn) [D, reference compound]", "Group": 1}
{"Compound": "O=C1C2=C(c3ccccc3)c3c(oc4ccccc34)C3(C4CCC3CC4)C2C(=O)N1C(Cl)(Cl)Cl (stereo not drawn)", "Group": -1}

Task: # TODO verify T1/2 < 100 h strictly for this compound: CC1=C2C(=O)N(C#N)C(=O)C2C2(c3sccc31)C1CC3CC(C1)CC2C3 (stereo not drawn)
Result: -1

Task: hey, is T1/2 for COc1ccc(-c2cc3c(o2)C2(C4CC5CC(C4)CC2C5)C2C(=O)N(CC#N)C(=O)C2=C3C)cc1 (stereo not drawn) [C, reference compound] lower than 100 h or not?
Result: 1

Task: Quick check: does CCCC1=C2C(=O)N(C(Cl)(Cl)Cl)C(=O)C2C2(c3oc4c(c31)CCCC4)C1CCC2CC1 (stereo not drawn) have T1/2 under 100 h?
Result: -1

====

Measured Initial color, YI values are reported for all entries that follow.
- Measurement notes: Initial color of polymer plate (visual observation, YI by color-difference meter)
- Assay type: physicochemical
- Particulars: color-difference meter SM-4
Keep the answer to the number alone.

Use the examples below as a reference point.
{"Compound": "CC(=O)N1C(=O)C2=C(C3CC3)c3ccsc3C3(C4CC5CC(C4)CC3C5)C2C1=O (stereo not shown)", "Initial color, YI": 2.01}
{"Compound": "CCOC(=O)N1C(=O)C2=C(C)c3c(sc4ccccc34)C3(C4CCCC3(OC)CCC4)C2C1=O (stereo not shown)", "Initial color, YI": 2.95}
{"Compound": "CC1=C2C(=O)N(CC#N)C(=O)C2C2(c3oc(-c4ccccc4)cc31)C1CC3CC(C1)CC2C3 (stereo not shown) [B, reference compound]", "Initial color, YI": 10.65}
{"Compound": "CC(=O)N1C(=O)C2=C(C3CC3)c3c(sc4c3CCCC4)C3(C4CCC3CC4)C2C1=O (stereo not shown)", "Initial color, YI": 2.36}
{"Compound": "COc1ccc(-c2cc3c(o2)C2(C4CC5CC(C4)CC2C5)C2C(=O)N(CC#N)C(=O)C2=C3C)cc1 (stereo not shown) [C, reference compound]", "Initial color, YI": 17.56}
{"Compound": "N#CN1C(=O)C2=C(C3CC3)c3ccoc3C3(C4CC5CC(C4)CC3C5)C2C1=O (stereo not shown)", "Initial color, YI": 2.01}
{"Compound": "CCN1C(=O)C2=C(C)c3cc(-c4ccc(OC)cc4)n(-c4ccccc4)c3C3(C4CC5CC(C4)CC3C5)C2C1=O (stereo not shown) [F, reference compound]", "Initial color, YI": 19.23}
{"Compound": "CC1=C2C(=O)N(S(=O)(=O)c3cc(Cl)cc(Cl)c3)C(=O)C2C2(c3c1c1c(n3-c3ccccc3)CCCC1)C1CCC2CC1 (stereo not shown)", "Initial color, YI": 3.26}

Kindly note the recorded Initial color, YI for COc1ccc(C2=C3C(=O)N(C(=O)c4ccccc4)C(=O)C3C3(c4oc5ccccc5c42)C2CC4CC3CC(C)(C4)C2)cc1 (stereo not shown) , which is 3.94

Reported Initial color, YI for CCOC(=O)CN1C(=O)C2=C(C)c3cc(-c4ccc(OC)cc4)n(C)c3C3(C4CC5CC(C4)CC3C5)C2C1=O (stereo not shown) [H, reference compound] was 19.52

# compound CC1=C2C(=O)N(C#N)C(=O)C2C2(c3sccc31)C1CC3CC(C1)CC2C3 (stereo not shown) ; its Initial color, YI = 2.06

====

- Measurement notes: Initial color of polymer plate (visual observation, YI by color-difference meter)
- Type: physicochemical
- Particulars: before irradiation
Measurement label: Initial color, visually observed

Answered examples (5):
{"Molecule": "CC1=C2C(=O)N(CC#N)C(=O)C2C2(c3oc(-c4ccccc4)cc31)C1CC3CC(C1)CC2C3 (centres unmarked) [B, reference compound]", "Initial color, visually observed": "yellow"}
{"Molecule": "CC(=O)N1C(=O)C2=C(C3CC3)c3c(sc4c3CCCC4)C3(C4CCC3CC4)C2C1=O (centres unmarked) [Compound 23]", "Initial color, visually observed": "colorless"}
{"Molecule": "COc1cc(OC)c2c(c1)C(C)=C1C(=O)N(C#N)C(=O)C1C21C2CC3CC(C2)CC1C3 (centres unmarked) [Compound 30]", "Initial color, visually observed": "colorless"}
{"Molecule": "CCN1C(=O)C2=C(C)c3cc(-c4ccc(OC)cc4)n(-c4ccccc4)c3C3(C4CC5CC(C4)CC3C5)C2C1=O (centres unmarked) [F, reference compound]", "Initial color, visually observed": "yellow"}
{"Molecule": "COc1ccc(-c2cc3c(n2C)C2(C4CC5CC(C4)CC2C5)C2C(=O)N(CC#N)C(=O)C2=C3C)cc1 (centres unmarked) [I, reference compound]", "Initial color, visually observed": "yellow"}

The reported value for CCCCC12CCC(CC1)C21c2sc(C)c(CC)c2C(C2CC2)=C2C(=O)N(C(=O)c3cccc(C(F)(F)F)c3)C(=O)C21 (centres unmarked) [Compound 17] in terms of Initial color, visually observed is colorless

For reference, reported Initial color, visually observed for O=C1C2=C(C3CC3)c3c(sc4c3CCCC4)C3(C4CC5CC(C4)CC3C5)C2C(=O)N1S(=O)(=O)c1ccccc1 (centres unmarked) [Compound 10] stands at pale yellow

For record CSc1cc2c(n1C)C1(C3C(=O)N(C(F)(F)F)C(=O)C3=C2C(C)C)C2(C)CCC1(C)CC2 (centres unmarked) [Compound 19] the listed Initial color, visually observed is colorless

Reported Initial color, visually observed of CCN1C(=O)C2=C(C)c3ccsc3C3(C4CC5CC(C4)CC3C5)C2C1=O (centres unmarked) [A, reference compound] : yellow

Note to self: Initial color, visually observed recorded for CC1=C2C(=O)N(C(=O)c3ccccc3)C(=O)C2C2(c3occc31)C1CC3CC(C1)CC2C3 (centres unmarked) [Compound 33] was colorless

Record summary for CCC1=C2C(=O)N(S(=O)(=O)O)C(=O)C2C2(c3c(OC)cc(OC)cc31)C1CC3CC(C1)CC2C3 (centres unmarked) [Compound 27] : reported Initial color, visually observed = pale yellow

What the record says about CCC1=C2C(=O)N(C(=O)C(Cl)(Cl)Cl)C(=O)C2C2(c3sc4cc(OC)ccc4c31)C1CC3CC(Cl)(C1)CC2(Cl)C3 (centres unmarked) [Compound 7] : Initial color, visually observed is colorless

Entry CC1=C2C(=O)N(C#N)C(=O)C2C2(c3oc(-c4ccccc4)cc31)C1CC3CC(C1)CC2C3 (centres unmarked) [Compound 5] , Initial color, visually observed reported as colorless

So, CC(C)C1=C2C(=O)N(S(C)(=O)=O)C(=O)C2C2(c3c1ccn3C)C1CC3CC2CC(Cl)(C3)C1 (centres unmarked) [Compound 6] ? Its Initial color, visually observed was pale yellow

====

- Measurement notes: Initial color of polymer plate (visual observation, YI by color-difference meter)
- Type: physicochemical
- Particulars: before irradiation

{"Compound": "CC1=C2C(=O)N(C#N)C(=O)C2C2(c3sccc31)C1CC3CC(C1)CC2C3 (stereo not shown) [Compound 28]", "Initial color, visually observed": "colorless"}
{"Compound": "N#CN1C(=O)C2=C(C3CC3)c3ccoc3C3(C4CC5CC(C4)CC3C5)C2C1=O (stereo not shown) [Compound 29]", "Initial color, visually observed": "colorless"}
{"Compound": "COc1c(C)sc2c1C1(C3CC4CC(C3)CC1C4)C1C(=O)N(C(=O)Oc3ccccc3)C(=O)C1=C2C (stereo not shown) [Compound 26]", "Initial color, visually observed": "colorless"}
